- targetOrTestSystem: CYP11A1 (Homo sapiens)
- Construct: host or cells: NCI-H295R
- testDescription: NCI-H295R cellular pregnenolone biosynthesis inhibition assay (ELISA method)
- Assay type: cell-based
- experimentalConditions: NCI-H295R cells, 3 days incubation, pregnenolone in cell supernatant by ELISA; read-out: IC50
pIC50: −log10 of the molar value.
measurementName: pIC50

compound	targetOrTestSystem	pIC50
CC(C)Oc1cc(CN2Cc3ccccc3C2)ccc1CCC1CCN(S(C)(=O)=O)CC1	CYP11A1 (Homo sapiens)	6.52 to 7.00
COc1cc(CN2Cc3ccccc3C2)ncc1OCC1CCN(S(C)(=O)=O)CC1	CYP11A1 (Homo sapiens)	< 6.52
CS(=O)(=O)N1CCC(COc2ccc(CN3Cc4ccccc4C3)cc2O)CC1	CYP11A1 (Homo sapiens)	> 7.00
CS(=O)(=O)N1CCC(CCc2ncc(CN3Cc4ccccc4C3)s2)CC1	CYP11A1 (Homo sapiens)	6.52 to 7.00
CS(=O)(=O)N1CCC(CCc2ccc(CN3Cc4ccccc4C3)o2)CC1	CYP11A1 (Homo sapiens)	< 6.52

Quick check: pIC50 of `CS(=O)(=O)N1CCC(CCc2sc(CN3Cc4ccccc4C3)cc2Br)CC1` ?
< 6.52

Quick check: pIC50 of `CS(=O)(=O)N1CCC(COc2ccc(CN3Cc4ccccc4C3)cc2-c2ncco2)CC1` ?
6.52 to 7.00

====

- targetOrTestSystem: CYP11A1 (Homo sapiens, UniProt P05108)
- Construct: host or cells: NCI-H295R
- Sequence (P05108 40-521): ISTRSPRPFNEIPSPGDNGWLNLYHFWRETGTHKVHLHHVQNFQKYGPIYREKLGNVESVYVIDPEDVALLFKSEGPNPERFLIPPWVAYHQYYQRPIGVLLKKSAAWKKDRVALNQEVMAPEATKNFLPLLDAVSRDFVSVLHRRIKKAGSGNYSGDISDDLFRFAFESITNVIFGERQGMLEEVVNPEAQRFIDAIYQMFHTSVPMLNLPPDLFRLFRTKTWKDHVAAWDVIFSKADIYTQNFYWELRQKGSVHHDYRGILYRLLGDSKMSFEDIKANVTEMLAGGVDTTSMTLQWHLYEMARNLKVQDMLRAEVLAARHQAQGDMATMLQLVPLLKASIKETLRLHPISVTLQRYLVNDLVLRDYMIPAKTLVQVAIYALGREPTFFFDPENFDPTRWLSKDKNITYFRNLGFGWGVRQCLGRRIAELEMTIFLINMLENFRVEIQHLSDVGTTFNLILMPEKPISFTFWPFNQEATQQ
- testDescription: NCI-H295R cellular pregnenolone biosynthesis inhibition assay (ELISA method)
- Format: cell-based
- experimentalConditions: NCI-H295R cells, 3 days incubation, pregnenolone in cell supernatant by ELISA; read-out: IC50
pIC50: −log10 of the molar value.
This section presents compounds with their documented pIC50 values.

Reference set, count: 3
COc1cc(CN2Cc3ccccc3C2)ccc1Oc1cccc2c1CCN(S(C)(=O)=O)C2 < 6.52
Cn1c(CN2Cc3ccccc3C2)c(F)cc(C=CC2CCN(S(C)(=O)=O)CC2)c1=O > 7.00
COc1c(CCC2CCN(S(C)(=O)=O)CC2)ccc(CN2Cc3ccccc3C2)c1F > 7.00

Quick check: pIC50 of `CCOc1cc(CN2Cc3ccccc3C2)ccc1CCC1CCN(S(C)(=O)=O)CC1` ?
6.52 to 7.00

Quick check: pIC50 of `CS(=O)(=O)N1CCC(COc2cnc(CN3Cc4ccccc4C3)cn2)CC1` ?
< 6.52

Quick check: pIC50 of `CS(=O)(=O)N1CCC(CCc2cc(F)c(CN3Cc4ccccc4C3)cc2C#N)CC1` ?
> 7.00
